Hello, the source for this data is patent US9289488B2, in case you need it.

Protocol text: ThT fluorescence binding to liposomal peptide constructs
Applied conditions: ThT binding; liposomes DMPC/DMPG/cholesterol/MPLA 9:1:7:0.06, diluted 8-fold; single site fit; read-out: App. Kd
pKd: −log10 of the molar value. K(Palm) = lysine with palmitoylated side chain (X = Palmitoyl)
// reported pKd for each item listed
Parameter: pKd

Substance | Reading
H-K(X)-K(X)-QHHVEYGSDHRFEAD-K(X)-K(X)-OH [Palm15-1] ({K(Palm)-K(Palm)}-QHHVEYGSDHRFEAD-{K(Palm)-K(Palm)-OH}) [X = Palmitoyl] | 5.11
H-K(X)-K(X)-DAAFRHKSGYEVHHQ-K(X)-K(X)-OH ({K(Palm)-K(Palm)}-DAAFRHKSGYEVHHQ-{K(Palm)-K(Palm)-OH}) [Palm1-15(E3A, D7K), X = Palmitoyl] | 4.83
H-K(X)-K(X)-GHEAYHSVERFDDQH-K(X)-K(X)-OH [scPalm15] ({K(Palm)-K(Palm)}-GHEAYHSVERFDDQH-{K(Palm)-K(Palm)-OH}) [X = Palmitoyl] | 5.10

###

Protocol text: ThT fluorescence binding to liposomal peptide constructs
Applied conditions: ThT fluorescence at saturation; liposomes DMPC/DMPG/cholesterol/MPLA 9:1:7:0.06, diluted 8-fold
K(Palm) = lysine with palmitoylated side chain (X = Palmitoyl)
Is Bmax at least 20000? Then True. If not, False.

Substance | Class label
H-K(X)-K(X)-DAAFRHKSGYEVHHQ-K(X)-K(X)-OH ({K(Palm)-K(Palm)}-DAAFRHKSGYEVHHQ-{K(Palm)-K(Palm)-OH}) [Palm1-15(E3A, D7K), X = Palmitoyl] | True
H-K(X)-K(X)-GHEAYHSVERFDDQH-K(X)-K(X)-OH [scPalm15] ({K(Palm)-K(Palm)}-GHEAYHSVERFDDQH-{K(Palm)-K(Palm)-OH}) [X = Palmitoyl] | False
H-K(X)-K(X)-QHHVEYGSDHRFEAD-K(X)-K(X)-OH [Palm15-1] ({K(Palm)-K(Palm)}-QHHVEYGSDHRFEAD-{K(Palm)-K(Palm)-OH}) [X = Palmitoyl] | False
H-K(X)-K(X)-DAKFRHKSGYKVHHQ-K(X)-K(X)-OH ({K(Palm)-K(Palm)}-DAKFRHKSGYKVHHQ-{K(Palm)-K(Palm)-OH}) [Palm1-15(E3K, D7K, E11K), X = Palmitoyl] | True
H-K(X)-K(X)-DAKFRHKSGYEVHHQ-K(X)-K(X)-OH ({K(Palm)-K(Palm)}-DAKFRHKSGYEVHHQ-{K(Palm)-K(Palm)-OH}) [Palm1-15(E3K, D7K), X = Palmitoyl] | False
H-K(X)-K(X)-DAEFRHKSGYEVHHQ-K(X)-K(X)-OH ({K(Palm)-K(Palm)}-DAEFRHKSGYEVHHQ-{K(Palm)-K(Palm)-OH}) [Palm1-15(D7K), X = Palmitoyl] | True
